Catalogue of compounds with associated viability at 72 h, 0.195312 uM
TEST DETAILS: Cytotoxicity assay (CellTiter-Glo, 72 h), Jurkat
Assay type: cell-based
CONDITION DESCRIPTION: human, Jurkat cells (T lymphoma), conc 0.195312 uM, raw data (replicates)
Description: Jurkat cells were cultured in RPMI1640 medium supplemented with 10% foetal bovine serum, penicillin (50 U/ml), streptomycin (50 μg/ml), and Glutamax. SKOV-3 cells were cultured in DMEM medium supplemented with 10% fetal bovine serum, penicillin (50 U/ml), and streptomycin (50 μg/ml). […] Cell viabilities were measured using a CellTiter-Glo luminescent cell viability assay and EnVision multilabel plate reader.
MEASURE NAME: viability at 72 h, 0.195312 uM (%)

compound="COC1CC2CCC(C)C(O)(O2)C(=O)C(=O)N2CCCCC2C(=O)OC(C(C)CC2CCC(O)C(OC)C2)CC(=O)C(C)C=C(C)C(O)C(OC)C(=O)C(C)CC(C)C=CCCC=C1C (stereo not drawn) [Compound 15, 19,20-dihidro-rapamycin]" recorded_number=65.5
compound="CO[C@H]1C[C@@H]2CC[C@@H](C)[C@@](O)(O2)C(=O)C(=O)N2CCCC[C@H]2C(=O)O[C@H]([C@H](C)C[C@@H]2CC[C@@H](O)[C@H](OC)C2)CC(=O)[C@H](C)/C=C(\\C)[C@@H](O)CC[C@H](C)/C=C/C=C/C=C/1C [Compound 7]" recorded_number=46.3
compound="CO[C@@H]1C[C@H](C[C@@H](C)[C@@H]2CC(=O)[C@H](C)/C=C(\\C)[C@@H](O)[C@@H](OC)C(=O)[C@H](C)C[C@H](C)/C=C/C=C/C=C(\\C)[C@H](O)C[C@@H]3CC[C@@H](C)[C@@](O)(O3)C(=O)C(=O)N3CCCC[C@H]3C(=O)O2)CC[C@H]1O [Compound 17, (16R)-16-O-demethyl rapamycin]" recorded_number=36.3
compound="CO[C@H]1C[C@@H]2CC[C@@H](C)[C@@](O)(O2)C(=O)C(=O)N2CCCC[C@H]2C(=O)O[C@H]([C@H](C)C[C@@H]2CC[C@@H](O)[C@H](OC)C2)CC(=O)[C@H](C)/C=C(\\C)[C@@H](O)[C@@H](OC)C(=O)[C@H](C)C[C@H](C)/C=C/C=C/C=C/1C [Compound 1, rapamycin, reference compound]" recorded_number=24.4
compound="COC1CC2CCC(C)C(O)(O2)C(=O)C(=O)N2CCCCC2C(=O)OC(C(C)CC2CCC(O)C(OC)C2)CCC(C)C=C(C)C(O)C(OC)C(=O)C(C)CC(C)C=CC=CC=C1C (stereo not drawn) [Compound 16, 32-desketorapamycin]" recorded_number=24.3
compound="CO[C@@H]1/C=C/C=C/[C@@H](C)C[C@@H](C)C(=O)C[C@H](O)/C(C)=C/[C@@H](C)C(=O)C[C@@H]([C@H](C)C[C@@H]2CC[C@@H](O)[C@H](OC)C2)OC(=O)[C@@H]2CCCCN2C(=O)C(=O)[C@]2(O)O[C@@H](CC[C@H]2C)C1 [Compound 9]" recorded_number=60.9
compound="COC1CC2CCC(C)C(O)(O2)C(=O)C(=O)N2CCCCC2C(=O)OC(C(C)CC2CCC(O)C(OC)C2)CC(O)CC(=O)C(C)C=C(C)C(O)CC(=O)C(C)CC(C)C=CC=CC=C1C (stereo not drawn) [Compound 13]" recorded_number=47.2
compound="CO[C@H]1C[C@@H]2CC[C@@H](C)[C@@](O)(O2)C(=O)C(=O)N2CCCC[C@H]2C(=O)O[C@H]([C@H](C)C[C@@H]2CC[C@@H](O)[C@H](OC)C2)CC(=O)[C@H](C)/C=C(\\C)[C@@H](O)CC(=O)[C@H](C)C[C@H](C)/C=C/C=C(C)/C=C/1C [Compound 2, 27-demethoxy-19-methyl rapamycin]" recorded_number=97.6
compound="COC1CC2CCC(C)C(O)(O2)C(=O)C(=O)N2CCCCC2C(=O)OC(C(C)CC2CCC(O)C(OC)C2)CC(=O)C(C)C=C(C)C(O)CC(=O)C(C)C=C(C)C=CC=CC=C1C (stereo not drawn) [Compound 14]" recorded_number=95.7

###

TEST DETAILS: Cytotoxicity assay (CellTiter-Glo, 72 h), MESO-1
Assay type: cell-based
CONDITION DESCRIPTION: human, MESO-1 malignant pleural mesothelioma cells, conc 0.78125 uM; raw replicate data; read-out: MESO1 viability (%)
Catalogue of compounds with associated viability at 72 h, 0.78125 uM
MEASURE NAME: viability at 72 h, 0.78125 uM (%)

compound="COC1CC2CCC(C)C(O)(O2)C(=O)C(=O)N2CCCCC2C(=O)OC(C(C)CC2CCC(O)C(OC)C2)CC(=O)C(C)C=C(C)C(O)C(OC)C(=O)C(C)CC(C)C=CCCC=C1C (stereo not shown)" measure_name="viability at 72 h, 0.78125 uM" readout_units=% recorded_number=66.4
compound="COC1CC2CCC(C)C(O)(O2)C(=O)C(=O)N2CCCCC2C(=O)OC(C(C)CC2CCC(O)C(OC)C2)CC(O)CC(=O)C(C)C=C(C)C(O)CC(=O)C(C)CC(C)C=CC=CC=C1C (stereo not shown)" measure_name="viability at 72 h, 0.78125 uM" readout_units=% recorded_number=68.5
compound="COC1CC2CCC(C)C(O)(O2)C(=O)C(=O)N2CCCCC2C(=O)OC(C(C)CC2CCC(O)C(OC)C2)CCC(C)C=C(C)C(O)C(OC)C(=O)C(C)CC(C)C=CC=CC=C1C (stereo not shown)" measure_name="viability at 72 h, 0.78125 uM" readout_units=% recorded_number=66.1
compound=CO[C@H]1C[C@@H]2CC[C@@H](C)[C@@](O)(O2)C(=O)C(=O)N2CCCC[C@H]2C(=O)O[C@H]([C@H](C)C[C@@H]2CC[C@@H](O)[C@H](OC)C2)CC(=O)[C@H](C)/C=C(\C)[C@@H](O)CC[C@H](C)/C=C/C=C/C=C/1C measure_name="viability at 72 h, 0.78125 uM" readout_units=% recorded_number=67.7

###

TEST DETAILS: Cytotoxicity assay (CellTiter-Glo, 72 h), SKOV-3
Type: cell-based, human
CONDITION DESCRIPTION: human, SKOV-3 cells (ovarian adenocarcinoma), conc 0.390625 uM; raw replicate data; read-out: SKOV3 viability (%)
Protocol: Jurkat cells were cultured in RPMI1640 medium supplemented with 10% foetal bovine serum, penicillin (50 U/ml), streptomycin (50 μg/ml), and Glutamax. SKOV-3 cells were cultured in DMEM medium supplemented with 10% fetal bovine serum, penicillin (50 U/ml), and streptomycin (50 μg/ml). […] Cell viabilities were measured using a CellTiter-Glo luminescent cell viability assay and EnVision multilabel plate reader.
Catalogue of molecules with associated viability at 72 h, 0.390625 uM
MEASURE NAME: viability at 72 h, 0.390625 uM (%)

molecule="COC1CC2CCC(C)C(O)(O2)C(=O)C(=O)N2CCCCC2C(=O)OC(C(C)CC2CCC(O)C(OC)C2)CCC(C)C=C(C)C(O)C(OC)C(=O)C(C)CC(C)C=CC=CC=C1C (centres unmarked) [Compound 16, 32-desketorapamycin]" recorded_number=55.6
molecule="CO[C@@H]1C[C@H](C[C@@H](C)[C@@H]2CC(=O)[C@H](C)/C=C(\\C)[C@@H](O)[C@@H](OC)C(=O)[C@H](C)C[C@H](C)/C=C/C=C/C=C(\\C)[C@H](O)C[C@@H]3CC[C@@H](C)[C@@](O)(O3)C(=O)C(=O)N3CCCC[C@H]3C(=O)O2)CC[C@H]1O [Compound 17, (16R)-16-O-demethyl rapamycin]" recorded_number=78.2

###

Catalogue of compounds with associated viability at 72 h, 0.195312 uM
TEST DETAILS: Cytotoxicity assay (CellTiter-Glo, 72 h), SKOV-3
Assay type: cell-based, human
CONDITION DESCRIPTION: human, SKOV-3 cells (ovarian adenocarcinoma), conc 0.195312 uM; raw replicate data; read-out: SKOV3 viability (%)
MEASURE NAME: viability at 72 h, 0.195312 uM (%)

compound="COC1CC2CCC(C)C(O)(O2)C(=O)C(=O)N2CCCCC2C(=O)OC(C(C)CC2CCC(O)C(OC)C2)CC(=O)C(C)C=C(C)C(O)C(OC)C(=O)C(C)CC(C)C=CCCC=C1C (stereo not drawn) [Compound 15, 19,20-dihidro-rapamycin]" recorded_number=91
compound="CO[C@@H]1C[C@H](C[C@@H](C)[C@@H]2CC(=O)[C@H](C)/C=C(\\C)[C@@H](O)[C@@H](OC)C(=O)[C@H](C)C[C@H](C)/C=C/C=C/C=C(\\C)[C@H](O)C[C@@H]3CC[C@@H](C)[C@@](O)(O3)C(=O)C(=O)N3CCCC[C@H]3C(=O)O2)CC[C@H]1O [Compound 17, (16R)-16-O-demethyl rapamycin]" recorded_number=70
compound="CO[C@H]1C[C@@H]2CC[C@@H](C)[C@@](O)(O2)C(=O)C(=O)N2CCCC[C@H]2C(=O)O[C@H]([C@H](C)C[C@@H]2CC[C@@H](O)[C@H](OC)C2)CC(=O)[C@H](C)/C=C(\\C)[C@@H](O)[C@@H](OC)C(=O)[C@H](C)C[C@H](C)/C=C/C=C/C=C/1C [Compound 1, rapamycin, reference compound]" recorded_number=59.4
compound="CO[C@@H]1/C=C/C=C/[C@@H](C)C[C@@H](C)C(=O)C[C@H](O)/C(C)=C/[C@@H](C)C(=O)C[C@@H]([C@H](C)C[C@@H]2CC[C@@H](O)[C@H](OC)C2)OC(=O)[C@@H]2CCCCN2C(=O)C(=O)[C@]2(O)O[C@@H](CC[C@H]2C)C1 [Compound 9]" recorded_number=75
compound="CO[C@H]1C[C@@H]2CC[C@@H](C)[C@@](O)(O2)C(=O)C(=O)N2CCCC[C@H]2C(=O)O[C@H]([C@H](C)C[C@@H]2CC[C@@H](O)[C@H](OC)C2)CC(=O)[C@H](C)/C=C(\\C)[C@@H](O)CC(=O)[C@H](C)C[C@H](C)/C=C/C=C(C)/C=C/1C [Compound 2, 27-demethoxy-19-methyl rapamycin]" recorded_number=97.9
compound="COC1CC2CCC(C)C(O)(O2)C(=O)C(=O)N2CCCCC2C(=O)OC(C(C)CC2CCC(O)C(OC)C2)CCC(C)C=C(C)C(O)C(OC)C(=O)C(C)CC(C)C=CC=CC=C1C (stereo not drawn) [Compound 16, 32-desketorapamycin]" recorded_number=56.3
compound="CO[C@H]1C[C@@H]2CC[C@@H](C)[C@@](O)(O2)C(=O)C(=O)N2CCCC[C@H]2C(=O)O[C@H]([C@H](C)C[C@@H]2CC[C@@H](O)[C@H](OC)C2)CC(=O)[C@H](C)/C=C(\\C)[C@@H](O)CC[C@H](C)/C=C/C=C/C=C/1C [Compound 7]" recorded_number=64.9
compound="COC1CC2CCC(C)C(O)(O2)C(=O)C(=O)N2CCCCC2C(=O)OC(C(C)CC2CCC(O)C(OC)C2)CC(=O)C(C)C=C(C)C(O)CC(=O)C(C)C=C(C)C=CC=CC=C1C (stereo not drawn) [Compound 14]" recorded_number=97.3
compound="COC1CC2CCC(C)C(O)(O2)C(=O)C(=O)N2CCCCC2C(=O)OC(C(C)CC2CCC(O)C(OC)C2)CC(O)CC(=O)C(C)C=C(C)C(O)CC(=O)C(C)CC(C)C=CC=CC=C1C (stereo not drawn) [Compound 13]" recorded_number=80.1
